test: inhibitors of the yeast RAM network, primary screen, dse1pr::URA3 reporter, 5-FOA selection (AID 868);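 further: 0% = DMSO-only wells with no growth and 100% = 10 µM 1-NA-PP1 full growth; inhibition rescues growth on 5-FOA so higher OD means more RAM inhibition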
stated conditions: S. cerevisiae dse1pr::URA3 reporter, 5-FOA growth OD615, 2 d; at 50 µM; stronger effect = higher value; analog-sensitive cbk1-as2 kinase mutant strain
Out of some 190,000 compounds screened, about 3,500 (1.8%) were called active. The sample holds actives, similar compounds and a random draw of the others, so the mix is not that of the screen.
Provide the recorded inhibition for the entries that follow.
Unit % implied. Number only.

Fill in reported inhibition for this entry: COC(=O)C1=C(C)N(C)C(=S)NC1c1cc(OC)ccc1OC (stereo unspecified)
0.25

Fill in reported inhibition for this entry: COc1ccc(-c2nc3cc([N+](=O)[O-])ccc3o2)cc1OC
1.49

Fill in reported inhibition for this entry: CCNC(=O)CSc1nc(-c2ccccc2)cs1
0.79

Fill in reported inhibition for this entry: O=C(NC(=S)Nc1ccc(NC(=O)c2cccs2)cc1)c1ccc([N+](=O)[O-])cc1
2.93

Fill in reported inhibition for this entry: O=[N+]([O-])c1ccc2oc(-c3cccc(O)c3)nc2c1
13.2

Fill in reported inhibition for this entry: COc1ccc(/C=C(\NC(=O)c2ccc(OCC(C)C)cc2)C(=O)OCc2ccco2)cc1
11.7

Fill in reported inhibition for this entry: O=C(OCN1C(=O)c2ccccc2C1=O)/C(=C\c1ccco1)NC(=O)c1ccccc1
1.22

Fill in reported inhibition for this entry: C=CCOCCN(C)C1=NS(=O)(=O)c2ccccc21
2.38

Fill in reported inhibition for this entry: O=C(CSCC(=O)Nc1cccc([N+](=O)[O-])c1)Nc1ccccc1
0.64

Fill in reported inhibition for this entry: CCc1nnc(NS(=O)(=O)c2ccc(NC(=S)NC(=O)c3cccs3)cc2)s1
4.73

Fill in reported inhibition for this entry: O=C(NC(=S)Nc1cccc(-c2ccc(CO)o2)c1)c1cccs1
9.61

These entries and their values trace back to PubChem BioAssay AID868.
